TESTED_SYSTEM: P-selectin (Homo sapiens)
Sequence (P16109 whole entry): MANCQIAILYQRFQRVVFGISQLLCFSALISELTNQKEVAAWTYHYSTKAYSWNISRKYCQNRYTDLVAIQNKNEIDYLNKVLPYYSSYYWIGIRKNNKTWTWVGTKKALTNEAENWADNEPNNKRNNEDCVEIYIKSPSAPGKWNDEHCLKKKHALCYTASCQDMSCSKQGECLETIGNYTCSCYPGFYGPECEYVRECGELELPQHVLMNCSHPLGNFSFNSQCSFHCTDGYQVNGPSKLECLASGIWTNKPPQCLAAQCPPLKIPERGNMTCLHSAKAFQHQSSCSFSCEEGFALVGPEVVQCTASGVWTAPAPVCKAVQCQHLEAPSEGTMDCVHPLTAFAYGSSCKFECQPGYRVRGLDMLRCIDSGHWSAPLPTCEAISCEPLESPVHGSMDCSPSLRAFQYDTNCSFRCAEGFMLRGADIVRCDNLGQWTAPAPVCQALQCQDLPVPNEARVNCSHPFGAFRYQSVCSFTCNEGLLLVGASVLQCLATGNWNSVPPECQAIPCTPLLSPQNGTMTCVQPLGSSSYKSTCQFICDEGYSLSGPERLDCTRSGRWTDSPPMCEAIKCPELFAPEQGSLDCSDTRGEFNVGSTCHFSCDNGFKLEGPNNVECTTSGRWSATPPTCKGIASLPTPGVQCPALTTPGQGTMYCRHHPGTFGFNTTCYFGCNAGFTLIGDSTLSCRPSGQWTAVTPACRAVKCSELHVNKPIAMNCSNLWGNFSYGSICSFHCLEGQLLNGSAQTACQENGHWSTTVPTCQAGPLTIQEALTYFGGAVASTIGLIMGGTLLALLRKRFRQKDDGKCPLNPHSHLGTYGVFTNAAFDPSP
TEST_METHOD_NOTES: Inhibition of HL-60 cell adhesion to recombinant human Selectin P at 50 mM
Assay type: cell-based
Cut-off 80% on inhibition, inclusive. At or above means T; below means F.

{"MOLECULE": "O=C(O)CCCNC(=O)[C@]1(O)C[C@@H](O)[C@@H](O)[C@H](O)C1", "TESTED_SYSTEM": "P-selectin (Homo sapiens)", "CATEGORY_LABEL": "T"}
{"MOLECULE": "O=C(O)[C@H](CO)NC(=O)[C@]1(O)C[C@@H](O)[C@@H](O)[C@H](O)C1", "TESTED_SYSTEM": "P-selectin (Homo sapiens)", "CATEGORY_LABEL": "T"}
{"MOLECULE": "O=C(O)CCCCCNC(=O)[C@]1(O)C[C@@H](O)[C@@H](O)[C@H](O)C1", "TESTED_SYSTEM": "P-selectin (Homo sapiens)", "CATEGORY_LABEL": "F"}
{"MOLECULE": "O=C(O)CC[C@H](NC(=O)[C@]1(O)C[C@@H](O)[C@@H](O)[C@H](O)C1)C(=O)O", "TESTED_SYSTEM": "P-selectin (Homo sapiens)", "CATEGORY_LABEL": "T"}
{"MOLECULE": "O=C(O)CNC(=O)[C@]1(O)C[C@@H](O)[C@@H](O)[C@H](O)C1", "TESTED_SYSTEM": "P-selectin (Homo sapiens)", "CATEGORY_LABEL": "F"}
{"MOLECULE": "C[C@H](NC(=O)[C@]1(O)C[C@@H](O)[C@@H](O)[C@H](O)C1)C(=O)O", "TESTED_SYSTEM": "P-selectin (Homo sapiens)", "CATEGORY_LABEL": "F"}
{"MOLECULE": "CCC(C)[C@H](NC(=O)[C@]1(O)C[C@@H](O)[C@@H](O)[C@H](O)C1)C(=O)O (some centres not stated)", "TESTED_SYSTEM": "P-selectin (Homo sapiens)", "CATEGORY_LABEL": "T"}

----------
TESTED_SYSTEM: UniProt P16109
TEST_METHOD_NOTES: Inhibition of HL-60 cell adhesion to recombinant human Selectin P
Format: cell-based

{"COMPOUND": "CCC(C)[C@H](NC(=O)[C@]1(O)C[C@@H](O)[C@@H](O)[C@H](O)C1)C(=O)O (some centres not stated)", "IC50": "19 mM"}
{"COMPOUND": "O=C(O)CCCCCNC(=O)[C@]1(O)C[C@@H](O)[C@@H](O)[C@H](O)C1", "IC50": "> 50 mM"}
{"COMPOUND": "C[C@H](NC(=O)[C@]1(O)C[C@@H](O)[C@@H](O)[C@H](O)C1)C(=O)O", "IC50": "> 50 mM"}
{"COMPOUND": "O=C(O)CCCNC(=O)[C@]1(O)C[C@@H](O)[C@@H](O)[C@H](O)C1", "IC50": "40 mM"}
{"COMPOUND": "O=C(O)CNC(=O)[C@]1(O)C[C@@H](O)[C@@H](O)[C@H](O)C1", "IC50": "> 50 mM"}
{"COMPOUND": "O=C(O)CC[C@H](NC(=O)[C@]1(O)C[C@@H](O)[C@@H](O)[C@H](O)C1)C(=O)O", "IC50": "21 mM"}
{"COMPOUND": "O=C(O)[C@H](CO)NC(=O)[C@]1(O)C[C@@H](O)[C@@H](O)[C@H](O)C1", "IC50": "19.5 mM"}

----------
TESTED_SYSTEM: E-selectin (Homo sapiens)
Sequence (whole entry): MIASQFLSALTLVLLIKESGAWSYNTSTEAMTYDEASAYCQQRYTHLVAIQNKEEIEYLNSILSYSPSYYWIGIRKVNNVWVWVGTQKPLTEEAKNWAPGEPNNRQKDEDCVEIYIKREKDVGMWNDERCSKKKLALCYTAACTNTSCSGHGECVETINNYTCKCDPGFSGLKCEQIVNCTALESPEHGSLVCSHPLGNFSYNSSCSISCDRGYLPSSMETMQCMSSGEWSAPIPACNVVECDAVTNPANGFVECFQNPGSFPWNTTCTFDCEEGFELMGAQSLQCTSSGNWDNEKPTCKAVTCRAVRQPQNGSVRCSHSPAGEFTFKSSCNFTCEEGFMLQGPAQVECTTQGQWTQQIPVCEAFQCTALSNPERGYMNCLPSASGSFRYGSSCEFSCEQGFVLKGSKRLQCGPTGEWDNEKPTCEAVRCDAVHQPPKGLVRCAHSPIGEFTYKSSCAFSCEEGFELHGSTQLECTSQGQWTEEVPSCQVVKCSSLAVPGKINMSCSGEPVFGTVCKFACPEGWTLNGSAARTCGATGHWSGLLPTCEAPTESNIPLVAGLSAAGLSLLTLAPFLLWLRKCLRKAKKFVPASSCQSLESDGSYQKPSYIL
TEST_METHOD_NOTES: Inhibition of HL-60 cell adhesion to recombinant human Selectin E at 50 mM
Type: cell-based
Kind request: treat 40% as inclusive, so inhibition at 40% or higher is Criterion met, anything lower is Criterion not met.

{"COMPOUND": "O=C(O)CC[C@H](NC(=O)[C@]1(O)C[C@@H](O)[C@@H](O)[C@H](O)C1)C(=O)O", "CATEGORY_LABEL": "Criterion met"}
{"COMPOUND": "O=C(O)CCCCCNC(=O)[C@]1(O)C[C@@H](O)[C@@H](O)[C@H](O)C1", "CATEGORY_LABEL": "Criterion not met"}
{"COMPOUND": "O=C(O)[C@H](CO)NC(=O)[C@]1(O)C[C@@H](O)[C@@H](O)[C@H](O)C1", "CATEGORY_LABEL": "Criterion met"}
{"COMPOUND": "CCC(C)[C@H](NC(=O)[C@]1(O)C[C@@H](O)[C@@H](O)[C@H](O)C1)C(=O)O (some centres not stated)", "CATEGORY_LABEL": "Criterion met"}
{"COMPOUND": "O=C(O)CNC(=O)[C@]1(O)C[C@@H](O)[C@@H](O)[C@H](O)C1", "CATEGORY_LABEL": "Criterion not met"}
{"COMPOUND": "C[C@H](NC(=O)[C@]1(O)C[C@@H](O)[C@@H](O)[C@H](O)C1)C(=O)O", "CATEGORY_LABEL": "Criterion not met"}
